Target: C-X-C chemokine receptor type 1 (Homo sapiens, UniProt P25024); further: in other assays of this panel Not Active means under 50% inhibition at 10 µM
Sequence (P25024 whole entry): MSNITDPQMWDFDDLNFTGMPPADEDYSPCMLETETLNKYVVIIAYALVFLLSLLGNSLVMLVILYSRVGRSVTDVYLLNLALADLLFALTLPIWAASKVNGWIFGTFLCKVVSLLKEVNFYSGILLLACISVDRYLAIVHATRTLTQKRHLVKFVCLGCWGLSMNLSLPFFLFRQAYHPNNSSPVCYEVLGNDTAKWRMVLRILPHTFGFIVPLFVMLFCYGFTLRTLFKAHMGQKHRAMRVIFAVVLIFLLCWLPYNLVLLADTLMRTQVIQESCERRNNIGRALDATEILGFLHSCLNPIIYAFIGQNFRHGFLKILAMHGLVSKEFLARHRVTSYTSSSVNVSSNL

| compound | IC50 |
| --- | --- |
| CCN1CCN(c2cc3c(cc2F)c(=O)c(C(=O)O)cn3C2CC2)CC1 | Not Active |
| C[C@]12CCC(=O)C[C@@H]1CC[C@@H]1[C@@H]2CC[C@]2(C)[C@@H](O)CC[C@@H]12 | Not Active |
| Clc1cc(Cl)c(OCC#CI)cc1Cl | Not Active |
| COc1cc(NC(C)CCCN)c2ncccc2c1 (centres undefined) | Not Active |
| CN(Cc1cc(Br)cc(Br)c1N)C1CCCCC1 | Not Active |
| O=C1c2ccccc2C(=O)C1c1ccccc1 | Not Active |
| CCN(CC)CCNC(=O)c1cc(Cl)c(N)cc1OC [METOCLOPRAMIDE] | Not Active |
| C#C[C@]1(O)CC[C@H]2[C@@H]3[C@H](C)CC4=C(CCC(=O)C4)[C@H]3CC[C@@]21C | Not Active |
| CCOc1cc(N)c(Cl)cc1C(=O)NCC1CN(Cc2ccc(F)cc2)CCO1 (centres undefined) [MOSAPRIDE] | Not Active |

====

Biological target: UniProt P32245
Sequence (P32245 whole entry): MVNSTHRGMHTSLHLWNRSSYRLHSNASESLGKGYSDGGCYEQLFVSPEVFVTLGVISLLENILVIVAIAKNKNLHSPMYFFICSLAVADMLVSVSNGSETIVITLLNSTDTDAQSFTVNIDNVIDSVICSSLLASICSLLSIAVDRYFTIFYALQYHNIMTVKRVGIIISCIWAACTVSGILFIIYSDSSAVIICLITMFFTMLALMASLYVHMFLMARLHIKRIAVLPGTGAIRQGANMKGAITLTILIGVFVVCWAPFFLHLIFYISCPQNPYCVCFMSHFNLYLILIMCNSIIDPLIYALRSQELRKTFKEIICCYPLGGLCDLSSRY
Type: cell membranes, Membrane
Details: hek293

| molecule | IC50 |
| --- | --- |
| O=C(O)CCc1nc(-c2ccccc2)c(-c2ccccc2)o1 | Not Active |
| OC[C@@H](O)[C@@H](O)[C@H](O)[C@H](O)CO | Not Active |
| CCCCCCNC(=O)n1cc(F)c(=O)[nH]c1=O | Not Active |
| COC(=O)C[C@](O)(CCC(C)(C)O)C(=O)O[C@@H]1C(OC)=C[C@]23CCCN2CCc2cc4c(cc2[C@H]13)OCO4 | Not Active |
| CCOc1cc(N)c(Cl)cc1C(=O)NCC1CN(Cc2ccc(F)cc2)CCO1 (configuration not stated) [MOSAPRIDE] | Not Active |
| O=[As][O-].[Na+] [SODIUM ARSENITE] | Not Active |
| C[N+](C)(C)CCOC(N)=O.[Cl-] | Not Active |
| Cc1c(N)nc([C@H](CC(N)=O)NC[C@H](N)C(N)=O)nc1C(=O)N[C@H](C(=O)N[C@H](C)[C@@H](O)[C@H](C)C(=O)N[C@H](C(=O)NCCc1nc(-c2nc(C(=O)NCCC[S+](C)C)cs2)cs1)[C@@H](C)O)[C@@H](O[C@@H]1O[C@@H](CO)[C@@H](O)[C@H](O)[C@@H]1O[C@H]1O[C@H](CO)[C@@H](O)[C@H](OC(N)=O)[C@@H]1O)c1c[nH]cn1.[Br-] | Not Active |
| CC[C@@]1(O)C(=O)OCc2c1cc1n(c2=O)Cc2cc3c(CN(C)C)c(O)ccc3nc2-1 | Not Active |
| Nc1nc(N)c2nc(CNc3ccc(C(=O)N[C@@H](CCC(=O)O)C(=O)O)cc3)cnc2n1 | Not Active |
| COC(=O)Nc1nc2ccc(C(=O)c3ccccc3)cc2[nH]1 | Not Active |
| c1ccc2c(c1)Nc1ccccc1S2 | Not Active |
| C[N+](C)(C)CCOP(=O)([O-])OC[C@H](O)CO | Not Active |
| NS(=O)(=O)c1cc(C(=O)O)c(NCc2ccco2)cc1Cl [FUROSEMIDE] | Not Active |
| COc1cc(NC(C)CCCN)c2ncccc2c1 (configuration not stated) | Not Active |
| C=CCc1ccc2c(c1)OCO2 | Not Active |
| Cc1cnc(NC(=O)C2=C(O)c3ccccc3S(=O)(=O)N2C)s1 | Not Active |

====

Assay: DRUGMATRIX: GABAA, Muscimol, Central radioligand binding (ligand: [3H] Muscimol)
Format: cell membranes, Rattus norvegicus, Wistar, Brain, Membrane
Conditions: Not Active = under 50% inhibition at 10 µM
endpoint label: IC50

| molecule | endpoint label | test value |
| --- | --- | --- |
| O=C(O)c1cc(/N=N/c2ccc(S(=O)(=O)Nc3ccccn3)cc2)ccc1O [SULFASALAZINE] | IC50 | Not Active |
| COC(=O)Nc1nc2ccc(C(=O)c3ccccc3)cc2[nH]1 [MEBENDAZOLE] | IC50 | Not Active |
| Cc1cccc(C)c1NC(=O)C(C)N (stereo unspecified) [TOCAINIDE] | IC50 | Not Active |
| Cc1nnc(NS(=O)(=O)c2ccc(N)cc2)s1 [SULFAMETHIZOLE] | IC50 | Not Active |
| OC[C@@H](O)[C@@H](O)[C@H](O)[C@H](O)CO [MANNITOL] | IC50 | Not Active |
| O=C(OC[C@H]1O[C@@H](OC(=O)c2cc(O)c(O)c(OC(=O)c3cc(O)c(O)c(O)c3)c2)[C@H](OC(=O)c2cc(O)c(O)c(OC(=O)c3cc(O)c(O)c(O)c3)c2)[C@@H](OC(=O)c2cc(O)c(O)c(OC(=O)c3cc(O)c(O)c(O)c3)c2)[C@@H]1OC(=O)c1cc(O)c(O)c(OC(=O)c2cc(O)c(O)c(O)c2)c1)c1cc(O)c(O)c(OC(=O)c2cc(O)c(O)c(O)c2)c1 [TANNIC ACID] | IC50 | Not Active |
| CC(C)NCC(O)COc1ccc(CC(N)=O)cc1 (stereo unspecified) [ATENOLOL] | IC50 | Not Active |
| C=CCc1ccc2c(c1)OCO2 [SAFROLE] | IC50 | Not Active |
| O=C(O)COC(=O)Cc1ccccc1Nc1c(Cl)cccc1Cl [ACECLOFENAC] | IC50 | Not Active |
| CC(N)C12CC3CC(CC(C3)C1)C2 (stereo unspecified) [RIMANTADINE] | IC50 | Not Active |
| COc1ccccc1OCCNCC(O)COc1cccc2[nH]c3ccccc3c12 (stereo unspecified) [CARVEDILOL] | IC50 | Not Active |

====

Molecular target: C-C chemokine receptor type 4 (Homo sapiens, UniProt P51679); further: in other assays of this panel Not Active means under 50% inhibition at 10 µM
Sequence (P51679 whole entry): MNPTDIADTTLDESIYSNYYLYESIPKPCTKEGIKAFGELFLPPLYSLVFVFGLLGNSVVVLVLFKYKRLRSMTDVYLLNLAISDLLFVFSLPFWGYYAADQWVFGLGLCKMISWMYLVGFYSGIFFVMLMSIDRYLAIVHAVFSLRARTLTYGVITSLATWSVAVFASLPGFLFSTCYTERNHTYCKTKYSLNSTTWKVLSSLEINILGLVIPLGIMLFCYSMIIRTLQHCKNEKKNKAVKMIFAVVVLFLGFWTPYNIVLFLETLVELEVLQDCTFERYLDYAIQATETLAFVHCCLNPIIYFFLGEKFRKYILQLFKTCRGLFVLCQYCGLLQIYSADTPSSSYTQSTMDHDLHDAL
Format: cell membranes, Chem-1, Membrane
Conditions: read-out: Ki
endpoint label: Ki (µM)

| record smiles | target system | endpoint label | unit info | test value |
| --- | --- | --- | --- | --- |
| CCN(CC)C(=S)SSC(=S)N(CC)CC | C-C chemokine receptor type 4 (Homo sapiens, UniProt P51679) | Ki | µM | 4.4 |

====

Target: Adenosine receptor A1 (Homo sapiens, UniProt P30542); further: in other assays of this panel Not Active means under 50% inhibition at 10 µM;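 further: radioligand binding assay at the adenosine A1 receptor, with DPCPX serving as the labelled ligand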
Sequence (P30542 whole entry): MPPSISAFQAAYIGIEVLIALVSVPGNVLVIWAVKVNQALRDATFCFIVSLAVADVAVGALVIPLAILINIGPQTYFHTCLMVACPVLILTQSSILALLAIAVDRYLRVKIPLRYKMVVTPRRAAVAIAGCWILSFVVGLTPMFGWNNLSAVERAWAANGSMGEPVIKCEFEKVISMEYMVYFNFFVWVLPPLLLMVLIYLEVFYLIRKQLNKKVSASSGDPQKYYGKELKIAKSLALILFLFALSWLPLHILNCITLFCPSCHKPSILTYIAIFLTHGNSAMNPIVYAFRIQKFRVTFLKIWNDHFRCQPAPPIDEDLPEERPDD
Assay type: cell membranes, CHO, Membrane
Conditions: cho
endpoint label: IC50

| compound | test value |
| --- | --- |
| C[N+]1(C)[C@@H]2C[C@@H](OC(=O)[C@H](CO)c3ccccc3)C[C@H]1[C@@H]1O[C@@H]12.[Br-] [METHSCOPOLAMINE BROMIDE] | Not Active |
| CC12CCC(CC1=O)C2(C)C (stereo not drawn) | Not Active |
| CC(Cl)(Cl)Cl | Not Active |
| CO[C@@H]1[C@@H](OC)[C@H](C)[C@@](O)(CC(=O)O)O[C@H]1[C@H](C)[C@H]1O[C@@]2(CC[C@@](C)([C@H]3CC[C@@](C)([C@@H]4O[C@@H]([C@H]5O[C@](C)(O)[C@H](C)C[C@@H]5C)C[C@@H]4O[C@@H]4C[C@H](OC)[C@@H](OC)[C@H](C)O4)O3)O2)C[C@H](O)[C@H]1C.N | Not Active |
| CCN(CCO)CCCC(C)Nc1ccnc2cc(Cl)ccc12 (stereo not drawn) [HYDROXYCHLOROQUINE] | Not Active |
| O=C(c1ccccc1)c1ccc2n1CCC2C(=O)O (stereo not drawn) | Not Active |
| Cc1cc2c(s1)Nc1ccccc1N=C2N1CCN(C)CC1 | Not Active |
| CN(C)CCC=C1c2ccccc2COc2ccccc21 [DOXEPIN] | Not Active |
| Cc1cnc(NC(=O)C2=C(O)c3ccccc3S(=O)(=O)N2C)s1 | Not Active |
| CCO | Not Active |
| O=C(O)CNCP(=O)(O)O [GLYPHOSATE] | Not Active |
| Cc1cc(C(C)(C)C)c(O)c(C)c1CC1=NCCN1 | Not Active |
| CC(C)Cc1ccc([C@H](C)C(=O)O)cc1 | Not Active |
| CN(Cc1cc(Br)cc(Br)c1N)C1CCCCC1 | Not Active |
| Cc1nnc(NS(=O)(=O)c2ccc(N)cc2)s1 | Not Active |
| Nc1nc(F)nc2c1ncn2[C@@H]1O[C@H](CO)[C@@H](O)[C@@H]1O | Not Active |
| C[C@]12CCC(=O)C[C@@H]1CC[C@@H]1[C@@H]2CC[C@]2(C)[C@@H](O)CC[C@@H]12 | Not Active |
| C=CCc1ccc2c(c1)OCO2 | Not Active |
